biological target: F508delCFTR (Homo sapiens, UniProt P13569, DEL508-508); construct: expressed in transfected cells; host or cells: CFBE41o- human lung-derived epithelial cells (CFBE4lo-F508delCFTR-HRP), doxycycline-inducible; assay: Cell Surface Expression-Horse Radish Peroxidase (CSE-HRP) Assay; format: cell-based; details: with co-corrector (2 μM of 3-[(2R,4R)-4-({[1-(2,2-difluoro-1,3-benzodioxol-5-yl)cyclopropyl]carbonyl}amino)-7-methoxy-3,4-dihydro-2H-chromen-2-yl]benzoic acid); read-out: EC50 (with co-corrector)
Sequence (P13569 with tags, fused parts or gaps DEL508-508): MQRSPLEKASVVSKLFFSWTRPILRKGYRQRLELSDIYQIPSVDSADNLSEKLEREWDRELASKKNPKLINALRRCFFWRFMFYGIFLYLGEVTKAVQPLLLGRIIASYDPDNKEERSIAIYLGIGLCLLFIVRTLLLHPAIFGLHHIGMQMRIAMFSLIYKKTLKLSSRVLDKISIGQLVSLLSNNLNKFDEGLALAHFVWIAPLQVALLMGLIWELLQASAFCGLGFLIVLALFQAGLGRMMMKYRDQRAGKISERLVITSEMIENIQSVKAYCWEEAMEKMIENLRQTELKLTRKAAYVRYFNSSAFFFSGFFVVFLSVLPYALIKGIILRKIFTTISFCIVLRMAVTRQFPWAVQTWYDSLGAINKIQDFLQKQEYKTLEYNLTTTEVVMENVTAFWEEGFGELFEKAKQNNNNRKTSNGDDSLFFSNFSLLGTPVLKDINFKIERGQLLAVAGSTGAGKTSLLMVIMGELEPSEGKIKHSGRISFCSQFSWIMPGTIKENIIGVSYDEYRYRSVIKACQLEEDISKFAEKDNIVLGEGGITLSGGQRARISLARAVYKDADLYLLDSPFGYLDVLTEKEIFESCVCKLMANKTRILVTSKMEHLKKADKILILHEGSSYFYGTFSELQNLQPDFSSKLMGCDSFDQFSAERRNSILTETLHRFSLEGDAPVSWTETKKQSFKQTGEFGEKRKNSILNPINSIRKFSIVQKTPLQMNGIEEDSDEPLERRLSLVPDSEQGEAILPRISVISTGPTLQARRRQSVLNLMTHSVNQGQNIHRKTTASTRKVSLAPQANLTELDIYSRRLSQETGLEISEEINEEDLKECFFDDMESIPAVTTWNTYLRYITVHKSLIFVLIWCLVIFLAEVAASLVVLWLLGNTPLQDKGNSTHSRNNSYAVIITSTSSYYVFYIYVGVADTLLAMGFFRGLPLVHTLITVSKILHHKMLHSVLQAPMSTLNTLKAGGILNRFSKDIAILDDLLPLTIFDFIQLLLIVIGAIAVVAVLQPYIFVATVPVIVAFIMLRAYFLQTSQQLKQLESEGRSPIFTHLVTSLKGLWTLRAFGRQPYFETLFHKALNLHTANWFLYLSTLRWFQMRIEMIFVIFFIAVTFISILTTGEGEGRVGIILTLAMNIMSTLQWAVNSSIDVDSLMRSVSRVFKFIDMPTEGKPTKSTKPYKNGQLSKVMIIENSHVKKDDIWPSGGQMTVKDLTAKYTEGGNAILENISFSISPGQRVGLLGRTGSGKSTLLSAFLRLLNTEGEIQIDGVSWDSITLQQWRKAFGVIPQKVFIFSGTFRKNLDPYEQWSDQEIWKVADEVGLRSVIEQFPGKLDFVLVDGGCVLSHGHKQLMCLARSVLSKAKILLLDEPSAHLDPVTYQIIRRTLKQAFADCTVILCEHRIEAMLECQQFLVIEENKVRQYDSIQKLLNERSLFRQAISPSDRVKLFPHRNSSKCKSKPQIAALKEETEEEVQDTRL
reported_endpoint: EC50

Cc1cc(C(F)(F)F)cc(N[C@@H]2[C@@H](C(C)(C)C)[C@H](C(=O)O)N(C(=O)C3CCC(F)(F)CC3)[C@@H]2c2ccccc2)n1 (racemic) [III-104]: 1 to 10 µM
CC(C)(C)[C@H]1[C@H](Nc2nc(Nc3ccccc3)ccc2C#N)[C@H](c2ccccc2)N(C(=O)C2CCCCC2)[C@@H]1C(=O)O [III-150]: > 10 µM

Next:
Problem: Provide EC50 value for the following compound: COc1ccc(C23CC(C2)C3)cc1CN[C@H]1[C@H](C(C)(C)C)[C@@H](C(=O)O)N(C(=O)[C@H]2CCCC(F)(F)C2)[C@H]1c1ccccc1 [II-509]
Solution: < 1 µM
